targetOfAssay: T1, human PD-L1 (full-length, expressed on CHO cells) (human, UniProt Q9NZQ7 19-290)
T1 construct: also called huPD-L1; CD274
T1 sequence (Q9NZQ7 19-290): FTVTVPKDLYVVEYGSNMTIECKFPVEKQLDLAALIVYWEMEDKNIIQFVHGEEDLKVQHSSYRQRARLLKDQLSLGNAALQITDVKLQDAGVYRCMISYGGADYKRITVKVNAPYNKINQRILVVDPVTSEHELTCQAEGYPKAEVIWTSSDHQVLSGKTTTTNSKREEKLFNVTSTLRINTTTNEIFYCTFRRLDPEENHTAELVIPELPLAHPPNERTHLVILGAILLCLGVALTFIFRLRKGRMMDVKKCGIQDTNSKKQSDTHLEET
assaySummary: flow cytometry, CHO cells expressing huPD-L1, PE anti-human Fc
measurementName: MFI at 33.3 nM (MFI)

variant CD80 IgV-Fc H18Y/Q33L/E35D/M47I (Fc fusion, not shown: a dimerising Fc or GST) VIHVTKEVKEVATLSCGYNVSVEELAQTRIYWLKDKKMVLTMMSGDINIWPEYKNRTIFDITNNLSIVILALRPSDEGTYECVVLKYEKDAFKREHLAEVTLSVKAD
47800
variant CD80 IgV-Fc E35D/M47I/K54R/L85E (Fc fusion, not shown: a dimerising Fc or GST) VIHVTKEVKEVATLSCGHNVSVEELAQTRIYWQKDKKMVLTMMSGDINIWPEYRNRTIFDITNNLSIVILALRPSDEGTYECVVEKYEKDAFKREHLAEVTLSVKAD
36900

a. variant CD80 IgV-Fc Q33K/E35D/M47V/K89E/K93R (Fc fusion, not shown: a dimerising Fc or GST) VIHVTKEVKEVATLSCGHNVSVEELAQTRIYWKKDKKMVLTMMSGDVNIWPEYKNRTIFDITNNLSIVILALRPSDEGTYECVVLKYEEDAFRREHLAEVTLSVKAD
b. variant CD80 IgV-Fc E35D/M47I/E77A/L85Q/R94W (Fc fusion, not shown: a dimerising Fc or GST) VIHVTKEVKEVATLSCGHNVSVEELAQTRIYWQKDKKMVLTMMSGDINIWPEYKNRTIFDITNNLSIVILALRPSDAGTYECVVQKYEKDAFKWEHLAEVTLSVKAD
-- ask Pick one: a or b . Which one has the lower reported MFI at 33.3 nM? Answer with the label corresponding to your selection.
-- reply a
(a: 39100 MFI, b: 64500 MFI)

meta.source: patent US20210130436A1
